test: Distribution coefficient, log D of the compound at pH 7.2; assay type: physicochemical; settings: octanol/water
parameterMeasured: logD
One number for each entry.

Request: Specify logD for Clc1ccc2c(c1)c1ccccc1n2CC1CO1 (stereo unspecified) and stop.
Result: 4.93

====

tested on: Bacillus subtilis; assay: Antibacterial activity against Bacillus subtilis SU5 after 24 hrs by broth microdilution method; format: functional; details: SU5, 24 h
parameterMeasured: MIC (µM)
Give bare numbers, in µM.

// below: answered molecules
compoundStructureString | endpointUnit | MIC
O=C(O)[C@@H]1CCCc2c1[nH]c1ccc(Cl)cc21 | µM | 156
CCOC(=O)[C@@H]1CCCc2c1[nH]c1ccc(Cl)cc21 | µM | 78
O=C(O)c1ccc(-c2ccc(F)cc2)cc1 | µM | 2500
O=C(O)c1cc2[nH]c3c(c2cc1Cl)CCCC3 | µM | 2500

# evaluate next
Request: # assay system Bacillus subtilis: give MIC of COC(=O)[C@@H]1CCCc2c1[nH]c1ccc(Cl)cc21
Result: 78

====

tested on: Escherichia coli; experiment: Inhibition of Escherichia coli DNA polymerase 3 beta assessed as inhibition of 5-carboxyfluorescein-QLDLF binding at <1 mM by fluorescence polarization-based competition assay
Active and inactive are the calls of the source. The rule behind the calls is not given here.
parameterMeasured: inhibition

compoundStructureString | measuredOn | parameterMeasured | measured
O=C1Nc2ccc(Cl)cc2C1=O | Escherichia coli | inhibition | inactive
O=[N+]([O-])c1ccc2cn[nH]c2c1 | Escherichia coli | inhibition | inactive
O=[N+]([O-])c1ccc2[nH]ccc2c1 | Escherichia coli | inhibition | inactive
NC(=O)c1ccc(F)c(F)c1 | Escherichia coli | inhibition | inactive

====

system: Acinetobacter baylyi; test: Antibacterial activity against Acinetobacter baylyi ADP1 after 24 hrs by broth microdilution method; type: functional; conditions: ADP1, 24 h
parameterMeasured: MIC (µM)
Answers are plain numbers, in µM.

// below: answered compounds
compoundStructureString | MIC / µM
O=C(O)c1ccc(-c2ccc(F)cc2)cc1 | 5000
O=C(O)[C@@H]1CCCc2c1[nH]c1ccc(Cl)cc21 | 313
CCOC(=O)[C@@H]1CCCc2c1[nH]c1ccc(Cl)cc21 | 156
COC(=O)[C@@H]1CCCc2c1[nH]c1ccc(Cl)cc21 | 78

# evaluate next
Request: Specify MIC for O=C(O)c1cc2[nH]c3c(c2cc1Cl)CCCC3 and stop.
Result: 5000

====

assay: Distribution coefficient, log D of the compound at pH 7.2; format: physicochemical; conditions: octanol/water, read-out: logD
Would you mind telling me the reported logD of each entry?
Answers are plain numbers.

Hi team, please reply with logD for each item in this list.
1. O=C(O)[C@@H]1CCCc2c1[nH]c1ccc(Cl)cc21
2. O=C(O)c1ccc(-c2ccc(F)cc2)cc1
3. O=C(O)c1cc2[nH]c3c(c2cc1Cl)CCCC3
4. CCOC(=O)[C@@H]1CCCc2c1[nH]c1ccc(Cl)cc21

Result:
0.36
-3.17
-0.48
4.44
